tested on: SK-ES-1 (Ewing's Sarcoma); assay: Bliss excess, mean over the matrix (fraction); higher = more synergy;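 note: after 72 h of two-drug dosing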
metric name: Bliss excess
Returns: the value as a bare number; no unit string appended.

# example entries with known answers
compound	test value
CC1(C)CCC(CN2CCN(c3ccc(C(=O)NS(=O)(=O)c4ccc(NCC5CCOCC5)c([N+](=O)[O-])c4)c(Oc4cnc5[nH]ccc5c4)c3)CC2)=C(c2ccc(Cl)cc2)C1 [Venetoclax] + C[C@@H](Nc1cc(F)cc(F)c1)c1cc(C(=O)N(C)C)cc2c(=O)cc(N3CCOCC3)oc12 [AZD8186] (first compound max 1 µM, 7x7, partner max 3 µM)	0.0802
Cn1cnc2c(F)c(Nc3ccc(Br)cc3Cl)c(C(=O)NOCCO)cc21 [Selumetinib] + CC(C)n1c(=O)n(C)c2cnc3cc(F)c(-c4ccc(OCCCN5CCCCC5)nc4)cc3c21 [AZD1390] (first compound max 10 µM, 7x7, partner max 0.3 µM)	-0.0246

API: the following record is the query input.
input: Entry C[C@@H](c1ccc2nccn2c1)n1nnc2ncc(-c3cnn(C)c3)nc21 [Savolitinib] + CN(CC[C@H](CSC1=CC=CC=C1)NC2=C(C=C(C=C2)S(=O)(=O)NC(=O)C3=CC=C(C=C3)N4CCC(CC4)[C@H](C5=CC=CC=C5C6=CC=C(C=C6)Cl)O)S(=O)(=O)C(F)(F)F)CCO [AZD4320] (first compound max 1 µM, 7x7, partner max 1 µM) : reported Bliss excess = ?
output: -0.0692
